# target-under-test: Thymidine phosphorylase (Escherichia coli K-12, UniProt P07650)
# Sequence (P07650 whole entry): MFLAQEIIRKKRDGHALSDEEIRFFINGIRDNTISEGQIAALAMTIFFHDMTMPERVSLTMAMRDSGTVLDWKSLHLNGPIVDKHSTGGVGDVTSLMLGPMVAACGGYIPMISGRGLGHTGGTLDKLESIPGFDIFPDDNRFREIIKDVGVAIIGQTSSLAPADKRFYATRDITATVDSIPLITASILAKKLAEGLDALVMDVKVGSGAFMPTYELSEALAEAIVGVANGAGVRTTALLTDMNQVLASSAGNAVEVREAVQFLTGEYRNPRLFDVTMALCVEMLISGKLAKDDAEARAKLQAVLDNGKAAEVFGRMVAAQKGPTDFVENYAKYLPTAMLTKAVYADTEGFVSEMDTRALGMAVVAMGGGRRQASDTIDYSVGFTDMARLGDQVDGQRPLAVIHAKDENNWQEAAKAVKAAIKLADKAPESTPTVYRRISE
quantity-name: IC50 (µM)

>  <smiles-code>
Cc1ccccc1NCn1nc(-c2ccc(Cl)cc2)oc1=S

>  <measured>
58.2

$$$$
>  <smiles-code>
Cc1ccc(-c2nn(CNc3ccccc3)c(=S)o2)cc1

>  <measured>
104

$$$$
>  <smiles-code>
Oc1ccccc1-c1nn(CNc2ccccc2Cl)c(=S)o1

>  <measured>
130

$$$$
>  <smiles-code>
COc1cccc(NCn2nc(-c3ccc(C)cc3)oc2=S)c1

>  <measured>
84.4

$$$$
>  <smiles-code>
Cc1ccc(-c2nn(CNc3ccc(Cl)c(Cl)c3)c(=S)o2)cc1

>  <measured>
134

$$$$
>  <smiles-code>
COc1ccccc1NCn1nc(-c2ccccc2)oc1=S

>  <measured>
87.2

$$$$
>  <smiles-code>
COc1cccc(NCn2nc(-c3ccccc3)oc2=S)c1

>  <measured>
40.6

$$$$
